PBM binding z-score listing for selected sequences.
- System: LXRb:RXRa (NR concentration 270 nM, RXRa partner concentration 90 nM)
- assay.info: PBM binding z-score (relative to random genomic background probes); higher = stronger binding; sequences stand for … in GC…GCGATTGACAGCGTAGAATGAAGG
Number, no unit, nothing else.

Worked examples follow.
CAAACTAGGTCACCGGAAGGTCGAAGTCCGCATG : 3.06
CTGACTGGGGCAGAAAGGTTACCATACCATCCGG : 1.5
TAGCCTAGGTCATGGGCCAGTAAACCACGCGAAC : 2.43
CGAACTACGTCATTGACAGGACAGTGAATAGTAA : -0.327

Please indicate PBM binding z-score recorded for CCAACTGGGGCATAAGGTTACCATAAGCCAGCCC
0.858

Input ATATGTAGGTTAGCTGGGGTAATTCAGACTAGGC , output reported PBM binding z-score.
1.28

Specify reported PBM binding z-score for the sequence shown: GCGAATGGGGCATCAGCAGGTTACCATAACTTAA
0.924

* * *

- Test system: PPARg DBDmut:RXRa IVT, anti-PPARg (DBD mutation: PPARg1 K132A/R137A, NR concentration 270 nM, RXRa partner concentration 90 nM)
- assay.info: PBM binding z-score (relative to random genomic background probes); higher = stronger binding; sequences stand for … in GC…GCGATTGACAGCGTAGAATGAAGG
Kind request: treat 0.9 as inclusive, so PBM binding z-score at 0.9 or higher is 1, anything lower is -1.

CGTCAAAGTTCAACTAAAGTAACGTAAAGCACGC : 1
CCTAGCAGGCCAGGGTCACTAAAGCATTTCGCTT : -1
CGAACTAGGTCAGAACAGGACAGTGAAGGATGAT : 1
ATCGAAAGGTCGTTAGGTGAGTATACAGAAAGGC : 1

Check this sequence for PBM binding z-score at or above 0.9: CCAACTAGGTCAAGAGGTCAAAGTCCGCTTCCCG
1

Please check the record GCAAGTTGGTCAGTAAAAGGTCACACACCGGTCG and state if its PBM binding z-score is at or above 0.9.
-1

Would you say GGAACGAGGGCAAGTTGATAGGAGAGTTTGATGG shows PBM binding z-score at minimum 0.9?
-1

Has TCAGACAGGTGCAGGTAACTCAGGTACGCAGTCG a recorded PBM binding z-score greater than or equal to 0.9?
-1

# check: PBM binding z-score of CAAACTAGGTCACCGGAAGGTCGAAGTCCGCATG is greater than or equal to 0.9
1

Determine whether this sequence has PBM binding z-score no lower than 0.9: TCTTGTAGACCAACAGGAGGTTAAGAAAGATCGA
-1

# bool: PBM binding z-score of CGAAATAGGTCAGAACAGGACAGTGAAGGATGAT >= 0.9
1

Determine whether this sequence has PBM binding z-score no lower than 0.9: GGTACAGGGTCAAGGCCAGAGTACGCGTATTGAT
-1

PBM binding z-score >= 0.9 for AGAACGAGGGCACGCTGAGTGGATAGCAGAGTAG ?
-1

Entry CAAACTAGGTCATGAAAGGTCAAAGTCGAATGAC : is its PBM binding z-score no less than 0.9?
1

* * *

- Tested on: LXRb homodimer (NR concentration 270 nM)
- assay.info: PBM binding z-score (relative to random genomic background probes); higher = stronger binding; sequences stand for … in GC…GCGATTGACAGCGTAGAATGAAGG
Decision: PBM binding z-score compared against 0.7; not below it gives rule met, below it gives rule not met.

Example entries and their recorded answers appear below.
CATACAGGGTCAGCTAGGCCAGACTAGGGACGGC : rule not met
ACTAGTTGGTCAGTTGAGGTCACACACAATTCGG : rule met
CGAACTAGGTCATCCAGGACGGTGAATACATTGA : rule not met
GGAACGAAGGCAAAGTTGATAGCATCTGTCGACG : rule not met
GGAACGAGTGCATTCGAGTTGATAGCATGGCGAT : rule not met

Does the reported PBM binding z-score for ATATGTAGGTTAAGGGTCATTAAGGTTGGTTCGC fall at or above the 0.7 mark?
rule met

Determine whether measured PBM binding z-score meets or exceeds 0.7 for CCTACTGGGCCACGAAAGGTCAATGATTCAGTGA
rule not met

Could you verify whether the entry AGAATGAGATTATACGTAGATCAGGGAAGAAAGT shows PBM binding z-score of no less than 0.7?
rule not met

Tell me whether PBM binding z-score is at least 0.7 here: ATCTCCAGGTAAAAGTTCAGTGAATCCCGAGGAT
rule met

Hello, I need to know if GCTTGTAGATCAAGATTAAGAAAGACTAAGCTAA has measured PBM binding z-score not below 0.7. Thanks!
rule not met

Item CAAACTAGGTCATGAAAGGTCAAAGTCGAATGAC with PBM binding z-score of 0.7 or above?
rule met

Check the entry TCGAGTAGGTTTGGGGCATTCAGAATGGCGTCGA : does PBM binding z-score equal or exceed 0.7?
rule not met

For this sequence, is measured PBM binding z-score 0.7 or higher? TCTTGTAGATCAAAGGTTATGAAAGCCGAAGCCT
rule not met

Does the reported PBM binding z-score for AGTCAAAGTTCACTCGGTAACGTAAGATTCAGCT fall at or above the 0.7 mark?
rule met

I'd appreciate it if you could say whether ACAGACAGGTGATTAAGGTAACTCAGGCTATCAT has PBM binding z-score at least equal to 0.7.
rule not met

Check the entry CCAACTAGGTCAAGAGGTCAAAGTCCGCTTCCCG : does PBM binding z-score equal or exceed 0.7?
rule met

* * *

- Test system: LXRb:RXRa (NR concentration 270 nM, RXRa partner concentration 90 nM)
- assay.info: PBM binding z-score (relative to random genomic background probes); higher = stronger binding; sequences stand for … in GC…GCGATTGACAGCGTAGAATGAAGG
measured.attribute: PBM binding z-score

Study these solved cases before continuing.
TGAATGAGGTTAAAGACCAGGGAACGTGGCGTCG : 1.26
ATCTCTAGGTAAGACTCAGTCCAGTGAAGAACGC : -0.0175
TCATATAGGTAAATGCTTGGTGAAAGTCCGATCT : 0.824
CCGACTGTGGCAAAGGTTACCATACTCAGTACGA : 1.73
CCTACTGGGCCATTCAGAGATCATTGATCATATG : -0.409

Continue with the next sequence.
State its PBM binding z-score for this sequence: CCTAGTAGGCCAATCTGGGTCACTCAAGGCTTGA
1.2

* * *

- Tested on: PXR homodimer (NR concentration 270 nM)
- assay.info: PBM binding z-score (relative to random genomic background probes); higher = stronger binding; sequences stand for … in GC…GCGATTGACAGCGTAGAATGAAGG
Listed here: items and their measured PBM binding z-score.

Field: example entries. Status: answers known.
CCAGACAGGTTAAAGGTAACTCAGTCTGGTACGC : -0.196
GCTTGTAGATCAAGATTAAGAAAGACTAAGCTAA : -0.582
ATCTCTAGGTAAAGATAGTGCAGTGAATGCAAAT : -0.041
AATACACGGTCACTAGGCCAGAGTAGGTACGAAT : -0.0687
TAGCCTAGGTCAATGGGCCAGTATAGTACGCATC : -0.285

Dear colleague, please send me the reported PBM binding z-score for CACACTAGGTCACGAAAGGTCAAAGTCGAATGAC when you can.
2.87

State, in one line, measured PBM binding z-score of AGTCAAAGTTCACTAGGTAACGTATGATTCAGCT
2.69

Answer with the recorded PBM binding z-score for the sequence listed here: CGTCCAAGGTCAGAGAGCTCAGTGAATGCCGAGT
0.855

Using the record for ATCTATAGGTAAAGATAGTTCAGTGAATGCAAAT , state its measured PBM binding z-score.
0.751

Return reported PBM binding z-score. Input sequence: CCTACTGTGCCATCAGGTCATTGATATCAACGTT
1.76

* * *

# key: entry, value: PBM binding z-score
- Tested on: THRa homodimer (NR concentration 90 nM)
- assay.info: PBM binding z-score (relative to random genomic background probes); higher = stronger binding; sequences stand for … in GC…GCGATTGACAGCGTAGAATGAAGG
Give the value as a plain number.

CCTTCTGGGCCATCAGGTCATTGATATCAACGTT : 2.98

Consider the sequence CCTACTGGGCCATTCAGAGGTCATGGATCATATG and give its recorded PBM binding z-score.
1.55

Check the records and state PBM binding z-score for GCAGACAGGTGAAACGCGGGTAACTCAGGGTGGC
-0.533

* * *

- Tested on: THRa homodimer (NR concentration 90 nM)
- assay.info: PBM binding z-score (relative to random genomic background probes); higher = stronger binding; sequences stand for … in GC…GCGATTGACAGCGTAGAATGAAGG
Entries and their PBM binding z-score
// response body must contain only the number

Recorded PBM binding z-score, per entry:
CATCCAAGGTCAAGGTCAGTGAAAGAGACTCGAA : 3.62
TGAATGAGTTTATAAGATCAGGGAACGTTGCAAA : -0.207
CCGAGTAGGTTGTGGGGCATTCAGGCAACGGTGA : 0.578
ACTTTTAGTTGAGACGAGGGCAACCGATAGGTTG : 0.433

Name the recorded PBM binding z-score of the sequence listed here: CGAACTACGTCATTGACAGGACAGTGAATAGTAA
-0.0847

Indicate its recorded PBM binding z-score; the sequence in question is TTACCAAGGTGAAATGTCGTTGATGCACGCCTTG
0.71

Complete the entry with PBM binding z-score for GCTCGGAAGACAAGGTCAGAGCTTTGTCCGTAGA
0.95

Identify PBM binding z-score associated with the sequence GCTGCTAGGTCAACTGATGGTCAGCTACAGCTCG
0.9

Could you please provide reported PBM binding z-score for CCGACTGGGGCAAAGGTAACCATACTCAGTACGA ? Thanks!
-0.249

Please indicate PBM binding z-score recorded for CCTCGGAGGACAACATGAGGTCAGAGCTGCCAGA
3.51

Specify reported PBM binding z-score for the sequence shown: TCTGCTAGGTCAGTTGGTCAGCGAACGAGCTGCC
-0.151

Look up and report measured PBM binding z-score for this entry: AATTACGGGTCAACGAGGTTATAGCACGCGTATA
1.16

Give a short answer stating reported PBM binding z-score for CCTACTGGGCCATTCAGTGGTCATTGATCATATG .
-0.878

Indicate the recorded PBM binding z-score value for this sequence: CCTAGCTGGCCAGGGTCACTCAAGCATTTCGCTT
0.857

Give recorded PBM binding z-score. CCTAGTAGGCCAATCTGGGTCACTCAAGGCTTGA
0.525

Provide only the value of recorded PBM binding z-score for GATACAGGGTCAAGGCCAGAGGACGCGTATTGAT
1.43

Look up PBM binding z-score of TCTTGTAGATCAACAGGAGGTTAAGACAGATCGA and report it.
-0.723

Return PBM binding z-score for the following sequence: TCATATAGGTAAATACTAGGTGAAAGTCCGATCT
0.718

State, in one line, measured PBM binding z-score of TCTAGTTGGTCAAAGGTCACAGACTCGAAATGCG
1.98

For the sequence CCTTACGGGTGACTCCAGGTTATAGCATCGGAGT , give its reported PBM binding z-score.
0.215

This collection of values is drawn from the supplement of paper PMC6555819.
